Conditions: 303.15 K; 101.33 kPa; Liquid; Vibrating tube method
MEASURED ATTRIBUTE: mass density (kg/m3)

>  <COMPOUND>
COC(=O)Oc1ccccc1 [methyl phenyl carbonate]

>  <MEASURED ATTRIBUTE>
mass density

>  <UNIT DESCRIPTOR>
kg/m3

>  <ASSAY RESULT>
1138.41

$$$$
>  <COMPOUND>
COc1ccccc1 [anisole]

>  <MEASURED ATTRIBUTE>
mass density

>  <UNIT DESCRIPTOR>
kg/m3

>  <ASSAY RESULT>
983.04

$$$$
>  <COMPOUND>
COC(=O)OC [dimethyl carbonate]

>  <MEASURED ATTRIBUTE>
mass density

>  <UNIT DESCRIPTOR>
kg/m3

>  <ASSAY RESULT>
1056.23

$$$$
>  <COMPOUND>
CO [methanol]

>  <MEASURED ATTRIBUTE>
mass density

>  <UNIT DESCRIPTOR>
kg/m3

>  <ASSAY RESULT>
782.03

$$$$
